FYI, the data here is from the Immune Epitope Database (IEDB).

- Test Target: HLA-B*54:01
- Protocol Notes: IEDB peptide-MHC binding, purified MHC/competitive/radioactivity; bounds were set here for any values at or beyond the usual limits of such assays
- Test Parameters: source organism: Homo sapiens
pIC50: −log10 of the molar value.
The sequences listed here are annotated with their pIC50.

Residue String	pIC50
SAPVNFISA	7.78
FPKETFEGP	7.79
YPVYQPVGP	8.77
FVEILIPVA	7.91

---

- Test Target: HLA-A*01:01
- Protocol Notes: IEDB peptide-MHC binding, purified MHC/competitive/radioactivity; bounds were set here for any values at or beyond the usual limits of such assays
- Test Parameters: source organism: Homo sapiens
pIC50: −log10 of the molar value.
The sequences listed here are annotated with their pIC50.

Residue String	pIC50
YVPEHWEYY	7.95
ATDGKVLLW	6.72
KLDLLEQEY	7.15
FLWPEAFLY	8.89
DTEFPNFKY	7.09

---

- Test Target: HLA-B*51:01
- Protocol Notes: IEDB peptide-MHC binding, purified MHC/competitive/radioactivity; bounds were set here for any values at or beyond the usual limits of such assays
- Test Parameters: source organism: Homo sapiens
pIC50: −log10 of the molar value.
The sequences listed here are annotated with their pIC50.

Residue String	pIC50
DGYVVKETI	7.87
IIYPTPKVV	7.42
DGLLRVLTV	9.70
DAPLNIRSI	8.19
TPESKIRFV	7.07
VPPLVPKVL	7.25
VALLVGEKV	6.84
DAYPQRIKF	7.51
YIIEREPLI	5.75
DGLRDLPSI	7.90

---

- Test Target: HLA-A*29:02
- Protocol Notes: IEDB peptide-MHC binding, purified MHC/competitive/radioactivity; bounds were set here for any values at or beyond the usual limits of such assays
- Test Parameters: source organism: Homo sapiens
The sequences listed here are annotated with their IC50.
Reported Endpoint: IC50

Residue String	Test Target	Reported Endpoint	Recorded Value
LPLDIQIFY	HLA-A*29:02	IC50	4.6 nM
GLPDLVAKY	HLA-A*29:02	IC50	29.7 nM
YLPALKVEY	HLA-A*29:02	IC50	2.6 nM
FYPELKLAY	HLA-A*29:02	IC50	0.2 nM
HFLDRHLVF	HLA-A*29:02	IC50	1.6 nM
